- measured-target: UniProtKB Q7Z2W7
- Sequence (Q7Z2W7 whole entry, looked up): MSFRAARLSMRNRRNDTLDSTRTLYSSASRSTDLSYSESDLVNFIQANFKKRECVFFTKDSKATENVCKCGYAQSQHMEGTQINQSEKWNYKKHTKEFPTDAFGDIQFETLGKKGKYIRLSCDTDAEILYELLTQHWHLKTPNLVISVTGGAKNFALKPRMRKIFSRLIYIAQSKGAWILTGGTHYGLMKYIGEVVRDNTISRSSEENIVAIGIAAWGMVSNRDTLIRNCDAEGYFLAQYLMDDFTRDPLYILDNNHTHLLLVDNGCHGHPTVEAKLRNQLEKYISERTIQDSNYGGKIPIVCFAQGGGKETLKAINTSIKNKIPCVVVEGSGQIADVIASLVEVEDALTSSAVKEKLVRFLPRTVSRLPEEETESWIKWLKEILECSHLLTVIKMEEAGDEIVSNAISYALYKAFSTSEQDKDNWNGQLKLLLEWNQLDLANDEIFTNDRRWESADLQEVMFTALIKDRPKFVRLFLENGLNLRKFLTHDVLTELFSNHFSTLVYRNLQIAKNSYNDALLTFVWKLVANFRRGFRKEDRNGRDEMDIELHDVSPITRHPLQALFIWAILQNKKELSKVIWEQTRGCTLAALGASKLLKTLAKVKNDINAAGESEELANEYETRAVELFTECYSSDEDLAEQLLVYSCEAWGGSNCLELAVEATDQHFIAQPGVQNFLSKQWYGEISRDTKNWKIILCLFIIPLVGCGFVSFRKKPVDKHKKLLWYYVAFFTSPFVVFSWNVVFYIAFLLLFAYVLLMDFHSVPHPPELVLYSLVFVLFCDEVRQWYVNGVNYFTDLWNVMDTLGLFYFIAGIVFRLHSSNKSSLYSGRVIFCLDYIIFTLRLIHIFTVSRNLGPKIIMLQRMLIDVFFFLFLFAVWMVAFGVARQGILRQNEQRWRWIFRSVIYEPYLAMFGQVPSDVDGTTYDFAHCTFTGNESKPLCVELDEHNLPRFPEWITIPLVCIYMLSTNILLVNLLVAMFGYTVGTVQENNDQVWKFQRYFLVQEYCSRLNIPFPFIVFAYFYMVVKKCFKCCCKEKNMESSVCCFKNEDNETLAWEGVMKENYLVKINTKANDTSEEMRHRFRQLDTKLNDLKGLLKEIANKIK
- experimental-details: Potency index, ratio of WS-3 EC50 to compound EC50 for human TRPM8 receptor
As shown below, each of these compounds has a reported Ratio EC50 value.
Answer with a number only.

// worked examples, Ratio EC50 included
- smiles-str: "CCN(Cc1cccs1)C(=O)COc1ccc(C)cc1"
  parameter-measured: "Ratio EC50"
  reported-result: 620
- smiles-str: "Cc1ccc(OCC(=O)N(Cc2cccs2)c2ncco2)cc1"
  parameter-measured: "Ratio EC50"
  reported-result: 120000
- smiles-str: "COCCN(Cc1cccs1)C(=O)COc1ccc(C)cc1"
  parameter-measured: "Ratio EC50"
  reported-result: 11

Continue with the compound presented below.
Exam item: # value lookup — system UniProtKB Q7Z2W7, readout Ratio EC50, item `Cc1ccc(OCC(=O)N(Cc2cccs2)C2COC2)cc1`
Marked response: 0.3
